test system: VRE 1008; type: cell-based, Enterococcus faecalis
Bridge positions count the residues as written; N and C are the ends. Square brackets hold non-standard residues; d marks the D form. Peptide text beside a SMILES is read from it. ξ: configuration not given here. dNMeF = CN[C@H](Cc1ccccc1)C(=O)O; Ile(3ξ) = CCC(C)[C@H](N)C(=O)O
Measured Endpoint: MIC (µg/mL)
Give bare numbers, in µg/mL.

Prompt line: May I ask what MIC has been recorded for CCC(C)[C@@H]1NC(=O)[C@H](C)NC(=O)[C@H](NC(=O)[C@H](CO)NC(=O)[C@@H](NC(=O)[C@H](NC(=O)[C@@H](CCC(N)=O)NC(=O)[C@H](CCCNC(=N)N)NC(=O)[C@@H](NC(=O)[C@@H](Cc2ccccc2)NC)[C@@H](C)CC)[C@H](C)CC)[C@@H](C)CC)[C@H](C)OC(=O)[C@H]([C@@H](C)CC)NC1=O (stereo partly shown) [Compound 32, Arg3-Ile10-teixobactin] (H-[dNMeF]IR[dQ][dI]IS[dT]A[Ile(3ξ)]I; ester 8-C) ?
Response line: 1
